Observation Type: melting point

// known answers, use as guide
# Structure As Smiles, Observation Type, Recorded Result
rows = [
    ("Oc1ccc(-c2cnc3cnc(-c4cccc(O)c4)nc3c2)cc1", "melting point", "> 268 °C"),
    ("COc1cc(O)ccc1-c1cnc2cnc(-c3ccc(O)cc3)nc2c1", "melting point", "207 to 208 °C"),
    ("COCOc1ccc(-c2ncc3ncc(N4CCNCC4=O)cc3n2)cc1", "melting point", "200 to 202 °C"),
]

-- ask Reported melting point, molecule COc1ccc(-c2cnc3c(-c4ccccc4)nc(-c4cccc(OC)c4)nc3c2)cc1 : ____
-- reply 147 to 148 °C

-- ask Reported melting point, molecule Oc1ccc(-c2ncc3ncc(Nc4ccncc4)cc3n2)cc1 : ____
-- reply > 268 °C

-- ask Reported melting point, molecule COc1ccc(-c2nc(-c3ccccc3)c3ncc(Cl)cc3n2)cc1 : ____
-- reply 193 to 194 °C
